Taken from ChEMBL document CHEMBL4368939.

Biological target: Tryptophan 2,3-dioxygenase (Homo sapiens)
Sequence (P48775 whole entry): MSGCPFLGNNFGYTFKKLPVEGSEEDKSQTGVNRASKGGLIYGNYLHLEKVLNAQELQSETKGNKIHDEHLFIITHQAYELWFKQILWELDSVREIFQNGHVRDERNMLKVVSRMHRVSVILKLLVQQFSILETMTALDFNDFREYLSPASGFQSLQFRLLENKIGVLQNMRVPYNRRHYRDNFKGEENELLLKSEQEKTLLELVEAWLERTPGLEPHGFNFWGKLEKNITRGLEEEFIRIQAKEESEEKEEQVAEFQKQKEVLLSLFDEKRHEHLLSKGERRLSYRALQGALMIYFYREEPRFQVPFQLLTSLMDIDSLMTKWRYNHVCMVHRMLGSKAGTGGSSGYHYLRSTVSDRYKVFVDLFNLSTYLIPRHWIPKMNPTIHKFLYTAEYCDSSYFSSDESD
Experiment: Inhibition of TDO (unknown origin)
reported_metric: pIC50
// scale note: pIC50 = -log10(conc_M); give the bare number

>  <molecular_string>
O=C1c2ccccc2-n2c1nc1ccccc1c2=O

>  <pIC50>
6.05

$$$$

q: Return reported pIC50; argument: CN1CCN(C(=O)c2ccc(Cn3nnc4c3C(=O)c3ccccc3C4=O)cc2)CC1
a: 7.52

====

Biological target: Indoleamine 2,3-dioxygenase 1 (Homo sapiens, UniProt P14902)
Sequence (P14902 whole entry): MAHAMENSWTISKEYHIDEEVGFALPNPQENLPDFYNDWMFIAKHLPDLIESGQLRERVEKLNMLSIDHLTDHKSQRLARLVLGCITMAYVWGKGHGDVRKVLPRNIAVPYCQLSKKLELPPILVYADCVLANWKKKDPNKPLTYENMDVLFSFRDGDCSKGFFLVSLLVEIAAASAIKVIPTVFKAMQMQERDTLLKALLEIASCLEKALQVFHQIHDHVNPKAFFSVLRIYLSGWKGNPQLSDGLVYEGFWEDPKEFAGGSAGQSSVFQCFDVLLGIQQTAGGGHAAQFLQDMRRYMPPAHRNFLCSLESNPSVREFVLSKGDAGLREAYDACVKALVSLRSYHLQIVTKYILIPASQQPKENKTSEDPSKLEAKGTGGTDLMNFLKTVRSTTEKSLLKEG
Test: Inhibition of human IDO1 expressed in Escherichia coli using L-tryptophan as substrate after 1 hr by UV absorption analysis
reported_metric: IC50 (nM)
Please give a number only; it is taken to be in nM.

q: Which IC50 value is on record for Brc1cc(NCc2cccc3nonc23)c2cn[nH]c2c1 ?
a: 740
